Data origin, for the record: patent US20210347865A1

molecular target: T1, native human ApoC3 (human, UniProt P02656 21-99, biotinylated in the captured-antigen assays (Tables 6 and 8); sites not stated); assay: SPR, biotinylated antigen captured on SA chip, scFv periplasmic extract injected, pH 7.4
T1 construct: also called nhuApoC3; native huApoC3
T1 sequence (P02656 21-99): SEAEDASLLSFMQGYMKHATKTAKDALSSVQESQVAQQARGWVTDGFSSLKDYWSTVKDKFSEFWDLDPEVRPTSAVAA
measurement_name: koff (s⁻¹)
Express the result in s⁻¹ but write the number alone.

Form field: reported koff of 29G02 scFv (scFv, part only; not given: scFv linker, domain order, c-myc tag, V domains shown, not shown: another chain or arm of the molecule; small tags and cut ends) VH: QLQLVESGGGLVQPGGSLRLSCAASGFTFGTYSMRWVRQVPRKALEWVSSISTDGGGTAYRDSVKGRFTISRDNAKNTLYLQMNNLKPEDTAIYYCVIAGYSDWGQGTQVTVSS VL: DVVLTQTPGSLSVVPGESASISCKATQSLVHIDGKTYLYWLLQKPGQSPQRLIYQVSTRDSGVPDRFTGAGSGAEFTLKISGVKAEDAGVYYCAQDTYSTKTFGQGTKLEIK
0.00435
